- TEST SYSTEM: CYP 2C19 (Homo sapiens (Human))
- Sequence (P33261 whole entry): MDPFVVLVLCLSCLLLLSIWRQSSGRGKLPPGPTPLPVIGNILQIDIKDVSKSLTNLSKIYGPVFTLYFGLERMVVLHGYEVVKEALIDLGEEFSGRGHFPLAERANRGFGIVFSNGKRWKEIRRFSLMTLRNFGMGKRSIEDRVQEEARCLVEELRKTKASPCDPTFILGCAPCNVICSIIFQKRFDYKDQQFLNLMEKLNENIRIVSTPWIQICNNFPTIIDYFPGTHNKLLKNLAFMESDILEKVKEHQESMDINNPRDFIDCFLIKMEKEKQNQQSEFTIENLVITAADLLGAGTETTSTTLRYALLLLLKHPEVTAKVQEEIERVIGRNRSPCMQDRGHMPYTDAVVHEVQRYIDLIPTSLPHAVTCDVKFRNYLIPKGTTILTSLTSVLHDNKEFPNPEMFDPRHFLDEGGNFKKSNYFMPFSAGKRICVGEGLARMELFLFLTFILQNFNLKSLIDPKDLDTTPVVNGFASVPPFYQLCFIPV
- TEST DESCRIPTION: CYP inhibition in human liver microsomes, 2C19
- Assay type: in vitro ADME
- CONDITION NOTES: 2C19; read-out: CYP inhibition IC50
MEASUREMENT TYPE: IC50

Task: Give the reported IC50 for `[2H]C([2H])([2H])C1(C([2H])([2H])[2H])NC(=O)N(c2ccc(F)c(C(C)(F)F)c2)C1=O` (system: CYP 2C19 (Homo sapiens (Human))).
Output: > 20 µM

---

- TEST DESCRIPTION: Binding to HLM
- CONDITION NOTES: human liver microsomes
MEASUREMENT TYPE: fraction unbound
API note: the answer field is a bare number with no unit suffix.

Task: Any idea what its fraction unbound is? The compound is [2H]C([2H])([2H])C1(C([2H])([2H])[2H])NC(=O)N(c2ccc(F)c(C(C)(F)F)c2)C1=O [Compound IE]
Output: 1

---

- TEST DESCRIPTION: Mouse exposure / pharmacokinetic studies
- Assay type: in vivo, mice
- CONDITION NOTES: male, Swiss outbred, mouse, in vivo; mice, oral, mean dose 99.7 mg/kg; read-out: Plasma Cmax
MEASUREMENT TYPE: Cmax

Task: Tell me the measured Cmax of [2H]C([2H])([2H])C1(C([2H])([2H])[2H])NC(=O)N(c2ccc(F)c(C(C)(F)F)c2)C1=O [Compound IE] , please.
Output: 40500 ng/mL

---

- TEST DESCRIPTION: Pharmacokinetics in male Sprague Dawley rats
- Type: in vivo, rat
- CONDITION NOTES: male, Sprague Dawley, rat, in vivo, iv, 1 mg/kg, rats, IV 1 mg/kg, individual rats; read-out: Blood Vss
MEASUREMENT TYPE: Vd
Include the unit right after the number.

Task: Which Vd value belongs to `CC1(C)NC(=O)N(c2ccc(F)c(C(C)(F)F)c2)C1=O` ?
Output: 0.948 L/kg

---

- TEST DESCRIPTION: in vivo
- Set-up: species or system dog
- CONDITION NOTES: beagle, dog, in vivo; female dogs (n = 2), IV 1 mg/kg; read-out: Plasma CL
MEASUREMENT TYPE: clearance (mL/h/kg)
Respond with the bare value in mL/h/kg.

Task: Can you share its clearance? I mean this compound: `[2H]C([2H])([2H])C1(C([2H])([2H])[2H])NC(=O)N(c2ccc(F)c(C(C)(F)F)c2)C1=O`
Output: 1.92

---

- TEST DESCRIPTION: Plasma protein binding, rat plasma
- Format: in vitro ADME
- CONDITION NOTES: read-out: % bound (converted)
This listing pairs compounds with measured fraction unbound.
Keep the answer to the number alone.

>>> print(df.to_string())
                            molecule_smiles  result
0  CC1(C)NC(=O)N(c2ccc(F)c(C(C)(F)F)c2)C1=O    0.38

Lab note: next compound to report on.
Task: Which measured fraction unbound value corresponds to `[2H]C([2H])([2H])C1(C([2H])([2H])[2H])NC(=O)N(c2ccc(F)c(C(C)(F)F)c2)C1=O` ?
Output: 0.42
